Target: T1, mouse CTGF (antigen of the Biacore assay) (mouse, UniProt P29268 26-348)
T1 construct: also called mouse CTGF protein
T1 sequence (looked up): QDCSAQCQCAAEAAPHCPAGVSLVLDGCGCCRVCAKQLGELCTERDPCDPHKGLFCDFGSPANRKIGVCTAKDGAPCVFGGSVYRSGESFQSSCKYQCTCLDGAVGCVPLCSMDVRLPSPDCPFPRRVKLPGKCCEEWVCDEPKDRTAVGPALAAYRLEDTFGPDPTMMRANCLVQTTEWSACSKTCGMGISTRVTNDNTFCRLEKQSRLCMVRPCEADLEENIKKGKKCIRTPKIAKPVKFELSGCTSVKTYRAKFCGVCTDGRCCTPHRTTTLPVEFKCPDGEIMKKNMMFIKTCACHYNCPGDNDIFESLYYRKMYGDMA
Assay: Biacore, antibody captured on Protein A, mouse CTGF in flow, 1:1 fit
// values below are reported log10 kon
Metric: log10 kon (log10 of the value in M⁻¹ s⁻¹)

| Binder | log10 kon |
| --- | --- |
| Hu147-12wk (antibody, human IgG1, kappa, V domains shown) VH: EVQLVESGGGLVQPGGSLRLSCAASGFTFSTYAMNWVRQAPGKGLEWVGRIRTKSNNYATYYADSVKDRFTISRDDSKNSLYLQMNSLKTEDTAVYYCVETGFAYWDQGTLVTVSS VL: EIVLTQSPATLSLSPGERATLSCSASSSVSYMHWFQQKPGQSPKLLIYSTSNLASGIPARFSGSGSGTDYTLTISSLEPEDFAVYYCQQRSSYPLTFGQGTKLEIKR | 7.57 |
| Hu164-87wl (antibody, human IgG1, lambda, V domains shown) VH: EVQLQESGPGLVKPSQTLSLTCTVSGFSISTFGVHWIRQHPGKGLEWLGVIWRRGGTDYNAAFMSRLTISKDTSKNQVSFKLSSVTAADTAVYYCARDGGFDYWGQGTTVTVSS VL: ETVVTQEPSLTVSPGGTVTLTCRSSIGAVTTSNYANWVQQKPGQAFRGLIGGTSNRAPWTPARFSGSLLGGKAALTLSGVQPEDEAEYYCALWYSTHYVFGGGTKLTVLG | 7.72 |
| Hu95-42wk (antibody, human IgG1, kappa, V domains shown) VH: EVQLVQSGAEVKKPGASVKVSCKASGFTFTNYDIHWVKQAPGQRLEWIGLVYPYNGGTAYNQKFKDKATLTFDTSASTAYMELSSLRSEDTAVYYCARWGLIPGTTSYFDVWGQGTTVTVSS VL: EIVLTQSPATLSLSPGERATLSCRASSSVSYIHWYQQKPGQSPRPWIYATSNLASGVPARFSGSGSGTSYTLTISRLEPEDFAVYYCQQWNSNPWTFGGGTKVEIKR | 6.75 |
| Hu95-51yk (antibody, human IgG1, kappa, V domains shown) VH: EVQLVQSGAEVKKPGASVKVSCRASGFTFTNYAIHWVKQAPGQRLEWMGLVYPYTGGTAYNQKFKDKVTLTFDTSASTAYMELSSLRSEDTAVYYCARWGMIPGTNSYFDVWGQGTTVTVSS VL: EIVLTQSPATLSLSPGERATLSCRASSSVSYIHWYQQKPGQAPRPWIYATSNLASGIPARFSGSGSGTDYTLTISRLEPEDFAVYYCQQWNSNPWTFGGGTKVEIKR | 7.41 |
| Hu164-68wl (antibody, human IgG1, lambda, V domains shown) VH: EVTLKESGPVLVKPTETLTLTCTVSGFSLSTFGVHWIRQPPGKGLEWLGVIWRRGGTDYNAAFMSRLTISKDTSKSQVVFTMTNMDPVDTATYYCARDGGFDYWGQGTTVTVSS VL: ETVVTQEPSFSVSPGGTVTLTCRSSIGAVTTSNYANWVQQTPGQAFRGLIGGTSNRAPGVPDRFSGSILGNKAALTITGAQADDESDYYCALWYSTHYVFGGGTKLTVLG | 7.76 |

These data points were gathered from patent US20220324953A1.
